# System: Rb phosphorylated on serine 780 in CCNE1 amplified COV318 cells
# Measurement description: CDK2 pRb (S780) HTRF cellular assay
# Assay type: cell-based
# Measurement conditions: Homo sapiens, overnight treatment, read-out: IC50 in p-RB S780 HTRF cellular assay
Parameter measured: pIC50
As a rule, pIC50 stands for the negative log10 of the concentration, concentration in M.

Provide value of pIC50 for this record tested with Rb phosphorylated on serine 780 in CCNE1 amplified COV318 cells: C[C@@]1(O)CCC[C@H]1n1c(=O)ccc2cnc(NC3CCN(S(C)(=O)=O)CC3)nc21 [Compound A]
7.43

###

Recorded pIC50 for the following molecules
# System: CDK2/Cyclin E1 (Homo sapiens (Human))
# Measurement description: CDK2/Cyclin E1 HTRF enzyme activity assay (Example A)
# Measurement conditions: 1 mM ATP
pIC50: −log10 of the molar value.

>  <Smiles string>
CN1CCN(c2ccc(-n3cnc(-c4nc(NC5CCN(S(C)(=O)=O)CC5)ncc4C(F)(F)F)c3)c(Cl)c2)CC1

>  <Parameter measured>
pIC50

>  <Result>
≥ 7.30

$$$$
>  <Smiles string>
CS(=O)(=O)N1CCC(Nc2ncc(C(F)(F)F)c(-c3cn(C4CCOCC4)cn3)n2)CC1

>  <Parameter measured>
pIC50

>  <Result>
≥ 7.30

$$$$
>  <Smiles string>
Cn1cc(S(=O)(=O)N2CCC(Nc3ncc(C(F)(F)F)c(-c4cn(-c5cccnc5C(F)F)cn4)n3)CC2)cn1

>  <Parameter measured>
pIC50

>  <Result>
≥ 7.30

$$$$
>  <Smiles string>
Cc1c(-n2cnc(-c3nc(NC4CCN(S(C)(=O)=O)CC4)ncc3C(F)(F)F)c2)ccnc1C#N

>  <Parameter measured>
pIC50

>  <Result>
≥ 7.30

$$$$
>  <Smiles string>
[2H]C([2H])([2H])NCc1cccc(-n2cnc(-c3nc(NC4CCN(S(C)(=O)=O)CC4)ncc3C(F)(F)F)c2)c1Cl

>  <Parameter measured>
pIC50

>  <Result>
≥ 7.30

$$$$
>  <Smiles string>
CNC(=O)c1ccc(-n2cnc(-c3nc(NC4CCN(S(C)(=O)=O)CC4)ncc3C(F)(F)F)c2)c(Cl)c1Cl

>  <Parameter measured>
pIC50

>  <Result>
≥ 7.30

$$$$

Here is the next item to consider.
Dear colleague, I am looking for the recorded pIC50 of the following molecule: Cc1nc(-c2nc(N[C@H]3CCN(S(C)(=O)=O)C[C@H]3F)ncc2C(F)(F)F)cn1-c1cccc(C#N)c1Cl
≥ 7.30
